Test system: MIA PaCa-2
Assay: Growth inhibition assay (SRB assay), pancreatic tumor cell line MIA PaCa-2
Assay type: cell-based, human
Details: 72 h, mean ± SD, read-out: IC50 MIA PaCa-2
endpoint: IC50

compound="N.N.[Cl][Pt][Cl] [Cisplatin, reference compound]" measured_result="12.6 µM"

====

System: MIA PaCa-2
Assay: Growth inhibition assay (SRB assay), pancreatic tumor cell line MIA PaCa-2
Assay type: cell-based, human
Details: Homo sapiens, MIA PaCa-2, 72 h, mean ± SD, read-out: IC50 MIA PaCa-2
pIC50: −log10 of the molar value.
endpoint: pIC50

entry_smiles=C[C@@H](c1ccccc1)N1C[C@H](n2cc(CN(Cc3cn([C@H]4CN([C@@H](C)c5ccccc5)[C@H]5CC[C@@H]4C5)nn3)Cc3cn([C@H]4CN([C@@H](C)c5ccccc5)[C@H]5CC[C@@H]4C5)nn3)nn2)[C@@H]2CC[C@H]1C2 readout_qualifier== measured_result=4.50
entry_smiles=C[C@@H](c1ccccc1)N1C[C@@H](n2cc(-c3ccc(-c4cn([C@@H]5CN([C@@H](C)c6ccccc6)[C@H]6CC[C@@H]5C6)nn4)cc3)nn2)[C@@H]2CC[C@H]1C2 readout_qualifier=< measured_result=4.00
entry_smiles=C[C@@H](c1ccccc1)N1C[C@H](n2cc(-c3ccc(-c4cn([C@H]5CN([C@@H](C)c6ccccc6)[C@H]6CC[C@@H]5C6)nn4)cc3)nn2)[C@@H]2CC[C@H]1C2 readout_qualifier== measured_result=3.95
entry_smiles=C[C@@H](c1ccccc1)N1C[C@@H](n2cc(CO)nn2)[C@@H]2CC[C@H]1C2 readout_qualifier=< measured_result=4.00
entry_smiles=C[C@@H](c1ccccc1)N1C[C@H](n2cc(CCCc3cn([C@H]4CN([C@@H](C)c5ccccc5)[C@H]5CC[C@@H]4C5)nn3)nn2)[C@@H]2CC[C@H]1C2 readout_qualifier== measured_result=4.43
entry_smiles=C=CC(=O)OCc1cn([C@H]2CN([C@@H](C)c3ccccc3)[C@H]3CC[C@@H]2C3)nn1 readout_qualifier== measured_result=4.06
entry_smiles=C[C@@H](c1ccccc1)N1C[C@@H](n2cc(CN(Cc3cn([C@@H]4CN([C@@H](C)c5ccccc5)[C@H]5CC[C@@H]4C5)nn3)Cc3cn([C@@H]4CN([C@@H](C)c5ccccc5)[C@H]5CC[C@@H]4C5)nn3)nn2)[C@@H]2CC[C@H]1C2 readout_qualifier== measured_result=4.59
entry_smiles=C=CC(=O)OCc1cn([C@@H]2CN([C@@H](C)c3ccccc3)[C@H]3CC[C@@H]2C3)nn1 readout_qualifier== measured_result=4.06
entry_smiles=C[C@@H](c1ccccc1)N1C[C@@H](n2cc(-c3cccc(N)c3)nn2)[C@@H]2CC[C@H]1C2 readout_qualifier== measured_result=4.07
entry_smiles=C[C@@H](c1ccccc1)N1C[C@@H](n2cc(COCc3cn([C@@H]4CN([C@@H](C)c5ccccc5)[C@H]5CC[C@@H]4C5)nn3)nn2)[C@@H]2CC[C@H]1C2 readout_qualifier== measured_result=4.29
entry_smiles=C[C@@H](c1ccccc1)N1C[C@@H](n2cc(CN)nn2)[C@@H]2CC[C@H]1C2 readout_qualifier== measured_result=4.00

====

Tested on: MIA PaCa-2
Assay: Growth inhibition assay (SRB assay), pancreatic tumor cell line MIA PaCa-2
Format: cell-based, human
Conditions: Homo sapiens, MIA PaCa-2, 72 h, mean ± SD, read-out: IC50 MIA PaCa-2
endpoint: IC50 (µM)

compound=C[C@@H](c1ccccc1)N1C[C@H](n2cc(COCc3cn([C@H]4CN([C@@H](C)c5ccccc5)[C@H]5CC[C@@H]4C5)nn3)nn2)[C@@H]2CC[C@H]1C2 endpoint=IC50 readout_qualifier== measured_result=44.9
compound=C[C@@H](c1ccccc1)N1C[C@H](n2cc(COCc3ccccc3)nn2)[C@@H]2CC[C@H]1C2 endpoint=IC50 readout_qualifier== measured_result=76.5
compound=C[C@@H](c1ccccc1)N1C[C@H](n2cc(CO)nn2)[C@@H]2CC[C@H]1C2 endpoint=IC50 readout_qualifier=> measured_result=100
compound="CC(c1ccccc1)N1CC(n2cc(C3C4CCC(C4)N3C(C)c3ccccc3)nn2)C2CCC1C2 (stereo not shown)" endpoint=IC50 readout_qualifier== measured_result=63

====

Tested on: BALB/3T3 clone A31
Experiment: Growth inhibition assay (SRB assay), normal fibroblasts BALB/3T3 clone A31
Type: cell-based, mouse
Conditions: Mus musculus, BALB/3T3 clone A31, 72 h, supplement, mean ± SD, read-out: IC50 BALB3T3 (raw data)
Each entry below carries its recorded log10(IC50).
endpoint: log10(IC50) (log10 of the value in µg/mL)

compound="C[C@@H](c1ccccc1)N1C[C@@H](n2cc(CCCc3cn([C@@H]4CN([C@@H](C)c5ccccc5)[C@H]5CC[C@@H]4C5)nn3)nn2)[C@@H]2CC[C@H]1C2 [Compound 10]" system_under_test="BALB/3T3 clone A31" measured_result=0.86
compound="C[C@@H](c1ccccc1)N1C[C@@H](n2cc(CN)nn2)[C@@H]2CC[C@H]1C2 [Compound 3]" system_under_test="BALB/3T3 clone A31" measured_result=1.47
compound="C[C@@H](c1ccccc1)N1C[C@H](n2cc(CN(Cc3cn([C@H]4CN([C@@H](C)c5ccccc5)[C@H]5CC[C@@H]4C5)nn3)Cc3cn([C@H]4CN([C@@H](C)c5ccccc5)[C@H]5CC[C@@H]4C5)nn3)nn2)[C@@H]2CC[C@H]1C2 [Compound 19]" system_under_test="BALB/3T3 clone A31" measured_result=1.40
compound="CC(c1ccccc1)N1C2CCC(C2)C1c1cn(CC2CCCN2C(=O)OC(C)(C)C)nn1 (stereo not drawn) [Compound 21]" system_under_test="BALB/3T3 clone A31" measured_result=1.69
compound="C[C@@H](c1ccccc1)N1C[C@@H](n2cc(COCc3ccccc3)nn2)[C@@H]2CC[C@H]1C2 [Compound 8]" system_under_test="BALB/3T3 clone A31" measured_result=1.39
compound="C[C@@H](c1ccccc1)N1C[C@H](n2cc(CCCc3cn([C@H]4CN([C@@H](C)c5ccccc5)[C@H]5CC[C@@H]4C5)nn3)nn2)[C@@H]2CC[C@H]1C2 [Compound 11]" system_under_test="BALB/3T3 clone A31" measured_result=1.21
compound="C[C@@H](c1ccccc1)N1C[C@@H](n2cc(CN(Cc3cn([C@@H]4CN([C@@H](C)c5ccccc5)[C@H]5CC[C@@H]4C5)nn3)Cc3cn([C@@H]4CN([C@@H](C)c5ccccc5)[C@H]5CC[C@@H]4C5)nn3)nn2)[C@@H]2CC[C@H]1C2 [Compound 18]" system_under_test="BALB/3T3 clone A31" measured_result=1.32
compound="C[C@@H](c1ccccc1)N1C[C@@H](n2cc(COCc3cn([C@@H]4CN([C@@H](C)c5ccccc5)[C@H]5CC[C@@H]4C5)nn3)nn2)[C@@H]2CC[C@H]1C2 [Compound 12]" system_under_test="BALB/3T3 clone A31" measured_result=1.43
compound="C[C@@H](c1ccccc1)N1C[C@H](n2cc(COCc3cn([C@H]4CN([C@@H](C)c5ccccc5)[C@H]5CC[C@@H]4C5)nn3)nn2)[C@@H]2CC[C@H]1C2 [Compound 13]" system_under_test="BALB/3T3 clone A31" measured_result=1.45
compound="CC(c1ccccc1)N1CC(n2cc(C3C4CCC(C4)N3C(C)c3ccccc3)nn2)C2CCC1C2 (stereo not drawn) [Compound 20]" system_under_test="BALB/3T3 clone A31" measured_result=1.28
compound="C[C@@H](c1ccccc1)N1C[C@H](n2cc(-c3ccc(-c4cn([C@H]5CN([C@@H](C)c6ccccc6)[C@H]6CC[C@@H]5C6)nn4)cc3)nn2)[C@@H]2CC[C@H]1C2 [Compound 15]" system_under_test="BALB/3T3 clone A31" measured_result=1.58
compound="C[C@@H](c1ccccc1)N1C[C@H](n2cc(COCc3ccccc3)nn2)[C@@H]2CC[C@H]1C2 [Compound 9]" system_under_test="BALB/3T3 clone A31" measured_result=1.30
compound="C=CC(=O)OCc1cn([C@@H]2CN([C@@H](C)c3ccccc3)[C@H]3CC[C@@H]2C3)nn1 [Compound 4]" system_under_test="BALB/3T3 clone A31" measured_result=-0.19
compound="C[C@@H](c1ccccc1)N1C[C@H](n2cc(-c3cccc(N)c3)nn2)[C@@H]2CC[C@H]1C2 [Compound 7]" system_under_test="BALB/3T3 clone A31" measured_result=1.29
compound="C=CC(=O)OCc1cn([C@H]2CN([C@@H](C)c3ccccc3)[C@H]3CC[C@@H]2C3)nn1 [Compound 5]" system_under_test="BALB/3T3 clone A31" measured_result=1.02

====

Each record here notes measured IC50.
Test system: NCI-H1581
Assay: Growth inhibition assay (SRB assay), lung tumor cell line NCI-H1581
Type: cell-based, human
Conditions: 72 h, SRB, mean ± SD; read-out: IC50 NCI-H1581
endpoint: IC50

compound="CC(c1ccccc1)N1CC(n2cc(C3C4CCC(C4)N3C(C)c3ccccc3)nn2)C2CCC1C2 (stereo not shown) [Compound 20]" measured_result="6.25 µM"
compound="C[C@@H](c1ccccc1)N1C[C@@H](n2cc(CN(Cc3cn([C@@H]4CN([C@@H](C)c5ccccc5)[C@H]5CC[C@@H]4C5)nn3)Cc3cn([C@@H]4CN([C@@H](C)c5ccccc5)[C@H]5CC[C@@H]4C5)nn3)nn2)[C@@H]2CC[C@H]1C2 [Compound 18]" measured_result="2.44 µM"
compound="CC(c1ccccc1)N1C2CCC(C2)C1c1cn(CC2CCCN2C(=O)OC(C)(C)C)nn1 (stereo not shown) [Compound 21]" measured_result="77.6 µM"
compound="N.N.[Cl][Pt][Cl] [Cisplatin, reference compound]" measured_result="7.27 µM"

Values from paper PMC8072719
